Reference for the values: paper PMC9609496

# measured on: urease (Canavalia ensiformis)
# Sequence (P07374 whole entry, looked up): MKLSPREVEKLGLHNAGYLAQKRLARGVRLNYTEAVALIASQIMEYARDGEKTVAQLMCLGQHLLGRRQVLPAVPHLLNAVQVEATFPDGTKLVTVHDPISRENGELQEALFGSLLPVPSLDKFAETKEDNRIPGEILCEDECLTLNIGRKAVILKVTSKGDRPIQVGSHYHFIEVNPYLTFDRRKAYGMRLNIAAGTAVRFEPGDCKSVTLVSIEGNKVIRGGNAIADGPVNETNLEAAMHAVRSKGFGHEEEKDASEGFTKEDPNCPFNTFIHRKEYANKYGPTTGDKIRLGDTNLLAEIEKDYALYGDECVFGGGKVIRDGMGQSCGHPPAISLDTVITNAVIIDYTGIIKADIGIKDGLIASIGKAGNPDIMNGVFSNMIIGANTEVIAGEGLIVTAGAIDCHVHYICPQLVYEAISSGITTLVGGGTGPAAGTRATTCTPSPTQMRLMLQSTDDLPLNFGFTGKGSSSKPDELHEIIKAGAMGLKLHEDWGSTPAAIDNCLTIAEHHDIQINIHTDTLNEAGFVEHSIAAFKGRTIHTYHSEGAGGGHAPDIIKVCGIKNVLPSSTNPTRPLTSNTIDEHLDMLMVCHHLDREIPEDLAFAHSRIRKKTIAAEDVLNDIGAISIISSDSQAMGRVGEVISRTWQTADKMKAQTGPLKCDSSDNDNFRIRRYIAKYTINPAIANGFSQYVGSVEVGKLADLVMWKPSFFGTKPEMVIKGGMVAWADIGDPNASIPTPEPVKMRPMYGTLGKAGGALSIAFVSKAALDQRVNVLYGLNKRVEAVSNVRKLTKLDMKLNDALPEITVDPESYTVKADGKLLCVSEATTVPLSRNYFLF
# test name: biochemical
# Format: biochemical
outcome measure: IC50

compound: CCCCC(=O)NNS(=O)(=O)c1ccc(F)cc1[N+](=O)[O-] [Analog 5]
outcome measure: IC50
reported result: 2100 nM
